Kindly supply the reported solubility at 2 h values for the records listed here.
- experimentDescription: Solubility testing of peptides at different pH
- Format: physicochemical
- testConditions: 50 mM HCl buffer; 50 mM HCl pH 1.2; target concentration 1 mg/ml; 2 hours agitation; read-out: Solubility Buffer pH 1.2
Starred links: 1 amine or outer side, 2 acyl side, 3 side chain; linkers in the order of their positions; H or OH if unused. Positions of bridges follow the written chain, without caps; N, C: chain ends. Non-standard residues stand in square brackets, D forms with d. Residues, ends and D or L forms follow the SMILES beside them. *: point of attachment. 2Nal = N[C@@H](Cc1ccc2ccccc2c1)C(=O)O; AEF = NCCOc1ccc(C[C@H](N)C(=O)O)cc1; X4 = CN(CCCCCC(=O)[*:2])[*:1]; αMeL = CC(C)C[C@](C)(N)C(=O)O; Me2NCH2CH2 = CN(C)CC*; Aib = CC(C)(N)C(=O)O; Ahx = NCCCCCC(=O)O

Recorded solubility at 2 h for C[C@@H](O)[C@@H]1NC(=O)[C@H](CC(N)=O)NC(=O)[C@@H]2CSSC[C@H](NC(=O)[C@H](CCC(N)=O)NC(=O)[C@H](Cc3c[nH]c4ccccc34)NC1=O)C(=O)N[C@@H](Cc1ccc(OCCN)cc1)C(=O)N[C@@H](Cc1ccc3ccccc3c1)C(=O)NC(C)(C)C(=O)N[C@H](C(=O)N[C@@H](CC(N)=O)C(=O)NCC(N)=O)CC(=O)NCCCCCC(=O)N2 [compound 9] ([Ahx]CNTWQC[AEF][2Nal][Aib]DNG-NH2; disulfide 2-7; lactam N-11) , please?
≥ 1040 µg/mL

Next molecule up: CC(C)C[C@@H](NC(=O)[C@H](CC(N)=O)NC(=O)[C@@H]1CC(=O)N(C)CCCCCC(=O)N[C@H]2CSSC[C@H](NC(=O)[C@H](CCC(N)=O)NC(=O)[C@H](Cc3c[nH]c4ccccc34)NC(=O)[C@H]([C@@H](C)O)NC(=O)[C@H](CC(N)=O)NC2=O)C(=O)N[C@@H](Cc2ccc(OCCN(C)C)cc2)C(=O)N[C@@H](Cc2ccc3ccccc3c2)C(=O)N[C@@](C)(CC(C)C)C(=O)N1)C(N)=O [compound 40] ([X4]CNTWQCY(Me2NCH2CH2)[2Nal][αMeL]DN[dL]-NH2; disulfide 2-7; lactam N-11)
< 10 µg/mL
